Value source: PubChem BioAssay AID795

assay explanation: activators of LNCaP prostate cell differentiation, primary screen, flow cytometry side scatter (AID 795);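 also: androgen-responsive LNCaP prostate cancer cells in charcoal-stripped serum medium; higher shift means more granular cells and more differentiation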
cond: 4 d, at 10 µM, hits give high values
Screen size: about 24,000 compounds; about 130 (0.54%) were called active. The full list was thinned out, with actives kept by preference.
Quick rule: side scatter shift of at least 10% means Yes, below that means No.

Solved entries (count: 8):
Cc1nc2ccccc2c2oc(C(=O)NCC3CCCO3)cc12 (stereo unspecified); Yes
Cc1cc(C)nc(SCc2nnc(SCC(=O)Nc3ncc(C)s3)n2Cc2ccco2)n1; Yes
O=C(COC(=O)C12CC3CC(CC(C3)C1)C2)NCc1ccco1; Yes
O=C1CSC(c2cccc(F)c2)N1c1ccccc1F (stereo unspecified); No
CCOc1c(OC)cc(C2C(C#N)=C(N)Oc3n[nH]c(-c4ccncc4)c32)cc1OC (stereo unspecified); No
COc1ccc(OCc2ccc(-c3nc4ccccc4c(=O)n3N)o2)cc1; No
C/C(=C(\C#N)C(=O)NCCCN1CCOCC1)N(C)C; Yes
COCCN1C(=O)c2oc3c(C)cc(C)cc3c(=O)c2C1c1cccc(O)c1 (stereo unspecified); No

Dear colleague, could you confirm whether Cc1cccc(C2c3c(n(C)c(=O)n(C)c3=O)N=C3c4ccccc4C(=O)C32)c1 (stereo unspecified) has side scatter shift at or above 10%?
Yes

Now consider `CCOC(=O)N1CCC(C(N)=O)CC1` .
Yes

Now consider CCOC(=O)C1(c2ccccc2)NC(c2ccc(N(C)C)cc2)C2C(=O)N(C)C(=O)C21 (stereo unspecified) .
Yes
